Test Details: ATG_CMV_CIS: Attagene CIS-FACTORIAL HepG2 Assay for human CMV (Internal Marker) (AID 2282928);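 note: endpoint acts as a background internal control marker rather than a target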
Details: HepG2 CMV promoter reporter, transcription factor profiling; actives raise or lower the signal
Calls of active or inactive are those of the source. Rule for the calls: active = hit-call score of the fitted dose curve at least 0.9, where 1 is the maximum; inactive = score below 0.9.
Outcome Measure: AC50

INSERT INTO assay_data (compound, result) VALUES
  ('O=C(O)C(Cl)(Cl)Cl', 'inactive'),
  ('CCCCCCCCc1ccc(O)cc1', 'inactive'),
  ('COc1ccc(C=O)cc1', 'inactive'),
  ('CCNc1nc(NC(C)(C)C)nc(SC)n1', '65.6 µM (active)'),
  ('CCCCCCCCSC(=O)Oc1cc(Cl)nnc1-c1ccccc1', '171 µM (active)');

// CC(=O)C(Cl)C(=O)N(C)C (centres undefined) : AC50 value = inactive

Data point: Oc1c(I)cc(I)cc1I ; AC50 = 49.3 µM (active)

Entry CCOP(=S)(OCC)Oc1nc(Cl)c(Cl)cc1Cl — recorded AC50 = 26.1 µM (active)

Lab book: AC50 of O=C(c1ccccc1)C(Cl)Cl noted as 28.7 µM (active)

Memo: ClC1=C(Cl)[C@]2(Cl)[C@@H]3[C@@H](Cl)[C@@H](Cl)C[C@@H]3[C@@]1(Cl)C2(Cl)Cl , reported AC50: inactive

Item: CCN(CC)C(=O)Cl | AC50: inactive

For this compound ( ClCC(Cl)CCl ), measured AC50 is inactive

Value of AC50 reported for the compound Clc1ccc(COC(Cn2ccnc2)c2ccc(Cl)cc2Cl)cc1 (centres undefined) is inactive

Sure, the documented AC50 for O=S(=O)(c1ccc(Cl)cc1)c1ccc(Cl)cc1 is 16.5 µM (active)
